Source listed as patent US20170101472A1.

Molecular target: T1, human LAG3 expressed on HEK293 cells (human, UniProt P18627 23-525)
T1 construct: also called hLAG3; HEK293/hLAG3
T1 sequence: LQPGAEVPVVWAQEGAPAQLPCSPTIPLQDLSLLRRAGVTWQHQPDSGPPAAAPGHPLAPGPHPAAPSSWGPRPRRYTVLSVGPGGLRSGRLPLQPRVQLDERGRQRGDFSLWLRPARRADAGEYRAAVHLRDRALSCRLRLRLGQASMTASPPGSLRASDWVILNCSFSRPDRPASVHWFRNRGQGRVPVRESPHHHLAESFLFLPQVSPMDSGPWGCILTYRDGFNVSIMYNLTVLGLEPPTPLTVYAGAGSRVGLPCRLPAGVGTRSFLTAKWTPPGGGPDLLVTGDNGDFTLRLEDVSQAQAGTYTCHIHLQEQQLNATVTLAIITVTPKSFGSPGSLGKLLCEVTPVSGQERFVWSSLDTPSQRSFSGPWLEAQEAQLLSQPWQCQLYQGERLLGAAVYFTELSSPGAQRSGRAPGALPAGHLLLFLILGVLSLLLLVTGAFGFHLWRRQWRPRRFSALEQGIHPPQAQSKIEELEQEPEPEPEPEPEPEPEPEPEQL
Experiment: flow cytometry, HEK293/hLAG3 cells
Endpoint Name: Ratio of MFI (100 nM/0 nM)

Binder	Observed Result
H4H15479P (antibody, human IgG4, V domains shown) VH: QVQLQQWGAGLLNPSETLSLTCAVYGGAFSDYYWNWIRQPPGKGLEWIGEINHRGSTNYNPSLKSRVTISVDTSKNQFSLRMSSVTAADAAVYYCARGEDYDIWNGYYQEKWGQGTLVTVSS VL: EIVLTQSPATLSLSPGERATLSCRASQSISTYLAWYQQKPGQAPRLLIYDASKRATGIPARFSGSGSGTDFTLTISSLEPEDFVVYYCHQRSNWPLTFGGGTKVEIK	203
H4H15483P (antibody, human IgG4, V domains shown, H4H = human IgG4 Fc with S108P hinge mutation) VH: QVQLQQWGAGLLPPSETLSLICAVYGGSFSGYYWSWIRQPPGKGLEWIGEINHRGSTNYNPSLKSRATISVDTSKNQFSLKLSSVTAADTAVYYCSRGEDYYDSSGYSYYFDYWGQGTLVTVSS VL: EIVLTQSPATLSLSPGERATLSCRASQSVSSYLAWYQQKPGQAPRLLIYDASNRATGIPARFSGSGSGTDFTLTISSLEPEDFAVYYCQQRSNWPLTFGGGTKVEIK	206
H4H14813N (antibody, human IgG4, V domains shown, H4H = human IgG4 Fc with S108P hinge mutation) VH: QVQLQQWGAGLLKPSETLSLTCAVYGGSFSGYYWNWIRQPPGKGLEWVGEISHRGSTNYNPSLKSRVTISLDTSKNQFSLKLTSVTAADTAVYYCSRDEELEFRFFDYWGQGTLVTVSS VL: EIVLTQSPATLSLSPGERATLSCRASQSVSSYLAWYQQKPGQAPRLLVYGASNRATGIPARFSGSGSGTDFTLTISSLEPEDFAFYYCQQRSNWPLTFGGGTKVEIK	208
H4H17823P (antibody, human IgG4, V domains shown, H4H = human IgG4 Fc with S108P hinge mutation) VH: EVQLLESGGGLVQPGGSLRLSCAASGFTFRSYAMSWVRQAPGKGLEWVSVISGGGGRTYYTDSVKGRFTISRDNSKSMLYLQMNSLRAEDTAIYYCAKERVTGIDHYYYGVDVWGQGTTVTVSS VL: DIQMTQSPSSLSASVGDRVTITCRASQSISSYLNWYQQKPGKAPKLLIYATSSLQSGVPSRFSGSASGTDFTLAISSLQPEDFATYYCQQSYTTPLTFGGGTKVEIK	305
H4sH15479P (antibody, V domains shown) VH: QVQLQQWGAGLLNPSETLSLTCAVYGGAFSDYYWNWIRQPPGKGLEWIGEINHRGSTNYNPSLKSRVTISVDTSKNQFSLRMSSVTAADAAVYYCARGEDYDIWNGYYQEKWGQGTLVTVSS VL: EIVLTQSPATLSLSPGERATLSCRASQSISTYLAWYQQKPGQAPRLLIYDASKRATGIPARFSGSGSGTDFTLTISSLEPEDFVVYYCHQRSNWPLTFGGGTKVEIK	199
H4H17819P (antibody, human IgG4, V domains shown, H4H = human IgG4 Fc with S108P hinge mutation) VH: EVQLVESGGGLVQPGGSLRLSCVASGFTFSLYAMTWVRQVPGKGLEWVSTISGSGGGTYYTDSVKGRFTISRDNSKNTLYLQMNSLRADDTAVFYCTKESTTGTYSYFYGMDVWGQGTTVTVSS VL: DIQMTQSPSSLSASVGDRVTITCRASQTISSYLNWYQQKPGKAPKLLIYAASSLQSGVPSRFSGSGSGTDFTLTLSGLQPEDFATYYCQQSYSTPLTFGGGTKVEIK	436
H4sH14813N (antibody, human IgG4 S228P, kappa, V domains shown, H4sH = modified human IgG4 Fc) VH: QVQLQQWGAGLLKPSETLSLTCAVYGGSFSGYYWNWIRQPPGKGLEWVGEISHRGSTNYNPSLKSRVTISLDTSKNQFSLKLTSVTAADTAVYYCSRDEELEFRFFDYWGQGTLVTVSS VL: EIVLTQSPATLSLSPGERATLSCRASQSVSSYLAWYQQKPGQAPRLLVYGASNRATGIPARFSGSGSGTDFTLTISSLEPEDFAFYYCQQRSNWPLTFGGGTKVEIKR	197
